- System: Fer (mouse);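 further: 11-residue human phosphosite peptides and single-mutation variants displayed on the E. coli surface, counted by deep sequencing, each peptide's frequency after selection divided by its frequency in the unselected input library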;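 further: frequency after pTyr selection over input frequency; kinase dosed for 20-30% of maximal phosphorylation in three min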
- test-description: phosphorylation enrichment, bacterial display (enrichment ratio); higher = better substrate or ligand; peptides without Tyr show the background
value-type: phosphorylation enrichment
Answer with a number only.

Per the record, PDNEPYIFKVF [PIK3AP1_Y553] has phosphorylation enrichment of 0.647

Per the record, ASTDYNKRGDF [PDHA1_Y243_Y243N] has phosphorylation enrichment of 0.378

Per the record, RGDCMYAPLLG [AR_Y269] has phosphorylation enrichment of 4.16

Per the record, PLGKDYRKAEG [MAP1A_Y1909] has phosphorylation enrichment of 0.655

Per the record, KNKNRCKNILP [PTPN11_Y279_Y279C] has phosphorylation enrichment of 0.488

Per the record, KNNDGYTDFAE [MCFD2_Y135_I136T_YF] has phosphorylation enrichment of 0.529

Per the record, GYEEAYSVFKK [PAFAH1B1_Y28] has phosphorylation enrichment of 0.339

Per the record, PRNLIYFGEHP [TRPV6_Y201_C197R] has phosphorylation enrichment of 0.619

Per the record, HLTLVYGGIFL [FBP1_Y259_R255L] has phosphorylation enrichment of 0.699

Per the record, SNNFIYTTLGV [FAM83B_Y639_K640T_YF] has phosphorylation enrichment of 2.67

Per the record, FRNSLYAPDFS [FAM92A_Y226_YF] has phosphorylation enrichment of 0.911

Per the record, MDQAEYQAKIQ [DHX58_Y518_R523Q] has phosphorylation enrichment of 0.864

Per the record, KANEYYPVVII [ADAMTS18_Y765_L769I] has phosphorylation enrichment of 1.45

Per the record, ETCLAYMEKRI [TEKT1_Y118_R119M] has phosphorylation enrichment of 0.691

Per the record, EEGRVYVYRLS [ITGAE_Y549] has phosphorylation enrichment of 0.505

Per the record, EKKKFYDTKIE [CASP5_Y104_YF] has phosphorylation enrichment of 0.446

Per the record, YAFQLYDLDRD [CHP2_Y123] has phosphorylation enrichment of 1.12

Per the record, APGDAYGDAGF [SYP_Y250_YF] has phosphorylation enrichment of 0.491

Per the record, EEDPEYKKKFR [FAM161A_Y278] has phosphorylation enrichment of 0.608

Per the record, LESTLYESSVV [TRPV4_Y91] has phosphorylation enrichment of 9.02

Per the record, LEDDMYRKTCT [XPA_Y257] has phosphorylation enrichment of 1.37

Per the record, EKQLLYSENKT [FRK_Y132] has phosphorylation enrichment of 1.19

Per the record, NNPAFYVLEGV [INPPL1_Y987_YF] has phosphorylation enrichment of 0.42

Per the record, QFLMKYVRSAS [ABCD1_Y337_W339R] has phosphorylation enrichment of 0.559

Per the record, CKLFQYFLDHL [ATRX_Y1849_YF] has phosphorylation enrichment of 0.635

Per the record, IGNGYYFRVFS [MYBPC3_Y1136] has phosphorylation enrichment of 0.556

Per the record, LSALDYKIFFF [WDPCP_Y210_YF] has phosphorylation enrichment of 0.672

Per the record, HEVHIYEKSGA [ARPC1B_Y35] has phosphorylation enrichment of 1.03

Per the record, EHTTLYSDNST [KANSL1_Y223_N225D] has phosphorylation enrichment of 0.661

Per the record, TPIYPYLLPKS [PLD2_Y580_T577I] has phosphorylation enrichment of 0.426

Per the record, FLAVEYHKPHI [IDS_Y225_G224E] has phosphorylation enrichment of 0.354

Per the record, RRVLVYVGRGA [QDPR_Y16_G17V] has phosphorylation enrichment of 0.85

Per the record, LKFAIYFEVRE [LAMA2_Y1258_A1261V_YF] has phosphorylation enrichment of 0.932

Per the record, YRAPGYREVVI [TNS2_Y673] has phosphorylation enrichment of 0.432

Per the record, RGLQVYHKRNA [LRP2_Y2010_R2012K] has phosphorylation enrichment of 0.517

Per the record, TDLAFYLVCKG [ASL_Y376_R379C_YF] has phosphorylation enrichment of 0.647

Per the record, PRRRFYVVACD [RNASE3_Y134_G130R] has phosphorylation enrichment of 0.433

Per the record, ASYGPYTRVQS [FOXL2_Y258] has phosphorylation enrichment of 0.438

Per the record, NVTRKYSRQIL [MAP3K2_Y463_T464S] has phosphorylation enrichment of 0.402

Per the record, LSDGPYSNSFE [EPOR_Y485_P488S_YF] has phosphorylation enrichment of 1.36

Per the record, YAKSVYWENTL [NUP107_Y296] has phosphorylation enrichment of 0.492

Per the record, SRLSAYPALEG [CD5_Y465_H461R] has phosphorylation enrichment of 0.391

Per the record, SGSWSYNTSTE [SELE_Y24_A21S] has phosphorylation enrichment of 0.393

Per the record, KTTGGYAGGLS [KRT8_Y419_S417G] has phosphorylation enrichment of 0.419

Per the record, GMKIVYVFVKK [DNAI2_Y5_E2K_YF] has phosphorylation enrichment of 0.416

Per the record, GAPATYEGDAR [CACNA1A_Y1013] has phosphorylation enrichment of 0.565

Per the record, MSRDIYSTDYY [NTRK1_Y676] has phosphorylation enrichment of 1.5

Per the record, SVVVPYEPTEV [TP53_Y220_P223T] has phosphorylation enrichment of 0.709

Per the record, REAAAYPHGRL [AGXT_Y297_L298P] has phosphorylation enrichment of 0.192

Per the record, GIVEEYQLPYY [BMPR1A_Y453] has phosphorylation enrichment of 0.66

Per the record, INITIYGKTFH [EFHC1_Y177_R182H] has phosphorylation enrichment of 0.579

Per the record, LDAFIYNAAVL [GRIN2A_Y730_D731N] has phosphorylation enrichment of 1.95

Per the record, HLVLNYGVCIC [JAK2_Y613_V617I] has phosphorylation enrichment of 0.67

Per the record, GKGGSYSKAES [HLA-E_Y341_W346S] has phosphorylation enrichment of 0.307

Per the record, FSCLPCGRLAY [SLC52A2_Y305_Y305C] has phosphorylation enrichment of 0.351

Per the record, PNKAVYTKMMT [G6PD_Y401_E398K] has phosphorylation enrichment of 0.656

Per the record, LITTLYISFLG [KCNQ1_Y267_G269S] has phosphorylation enrichment of 0.757
